experiment: Dog pharmacokinetics after IA injection (plasma, cartilage, bone, synovial fluid); assay type: in vivo, beagle dogs; conditions: male, beagle, dog, cartilage, other: intra-articular; dogs, IA suspension, 3 μg/knee, Day 45; read-out: Compound of Formula (I) Concentration, Cartilage
readout-label: concentration at 45 day (ng/g)
One number for each entry, in ng/g.

Req: Supply concentration at 45 day value. Item: "CC(C)CC(=O)Nc1cncc(-c2ccc3[nH]nc(-c4nc5c(-c6cccc(F)c6)cncc5[nH]4)c3c2)c1"
Resp: 152

----------
test: Rat pharmacokinetics after IA injection (plasma, knee joint); format: in vivo, Sprague Dawley rats; settings: Sprague Dawley, rat, cartilage, other: intra-articular; rats, single IA, 1 μg/knee, Day 90; read-out: Formula (I) concentration, Cartilage
readout-label: concentration at 90 day

Req: Supply concentration at 90 day value. Item: "CC(C)CC(=O)Nc1cncc(-c2ccc3[nH]nc(-c4nc5c(-c6cccc(F)c6)cncc5[nH]4)c3c2)c1"
Resp: 243 ng/g

----------
assay: Solubility of the starting solid by the gravimetric method; type: physicochemical; settings: organic solvent or mixture, thermodynamic from solid; IPA; 50° C.; read-out: Solubility at 50° C.
readout-label: solubility (µg/mL)
Give bare numbers, in µg/mL.

Req: Supply solubility value. Item: "CC(C)CC(=O)Nc1cncc(-c2ccc3[nH]nc(-c4nc5c(-c6cccc(F)c6)cncc5[nH]4)c3c2)c1"
Resp: 5000

----------
assay: Rat pharmacokinetics after IA injection (plasma, knee joint); assay type: in vivo, Sprague Dawley rats; conditions: Sprague Dawley, rat, bone, other: intra-articular; rats, single IA, 0.3 μg/knee, Day 30; read-out: Formula (I) concentration, Bone
readout-label: concentration at 30 day (ng/g)
One number for each entry, in ng/g.

Req: Supply concentration at 30 day value. Item: CC(C)CC(=O)Nc1cncc(-c2ccc3[nH]nc(-c4nc5c(-c6cccc(F)c6)cncc5[nH]4)c3c2)c1 [compound of Formula (I)]
Resp: 25.8

----------
test: Solubility of the starting solid by the gravimetric method; type: physicochemical; conditions: organic solvent or mixture, thermodynamic from solid; MIBK; 50° C.; read-out: Solubility at 50° C.
readout-label: solubility

Req: Supply solubility value. Item: "CC(C)CC(=O)Nc1cncc(-c2ccc3[nH]nc(-c4nc5c(-c6cccc(F)c6)cncc5[nH]4)c3c2)c1"
Resp: 1000 µg/mL

----------
Assay: Rat pharmacokinetics after IA injection (plasma, knee joint)
Format: in vivo, Sprague Dawley rats
Details: Sprague Dawley, rat, bone, other: intra-articular injection; rats, single IA, 9 μg/knee, Day 30; read-out: Formula (I) concentration, Bone
Experimental: In rats and dogs, the pharmacokinetic profile, safety profile, tissue distribution and cartilage regeneration following a single intra-articular (IA) injection of the compound of Formula (I) in the plasma and the knee joint (cartilage and bone) was determined. […] The pharmacokinetics of the compound of Formula (I) in rats was studied. […] The bone and cartilage tissues from the knee joint were segregated and concentrations analyzed. […]
readout-label: concentration at 30 day (ng/g)
One number for each entry, in ng/g.

Req: Supply concentration at 30 day value. Item: "CC(C)CC(=O)Nc1cncc(-c2ccc3[nH]nc(-c4nc5c(-c6cccc(F)c6)cncc5[nH]4)c3c2)c1"
Resp: 3290

----------
experiment: Solubility of the starting solid by the gravimetric method; format: physicochemical; conditions: organic solvent or mixture, thermodynamic from solid; MEK; 50° C.; read-out: Solubility at 50° C.
readout-label: solubility (µg/mL)
Give bare numbers, in µg/mL.

Req: Supply solubility value. Item: CC(C)CC(=O)Nc1cncc(-c2ccc3[nH]nc(-c4nc5c(-c6cccc(F)c6)cncc5[nH]4)c3c2)c1 [starting solid]
Resp: 1000

Entry source: patent US10882860B2
